PROTOCOL TEXT: inhibitors of HIV-1 Env-driven cell-cell fusion, primary screen, HeLa-JRFL effector, CEM21 target cells, luciferase (AID 651610);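 further: 0% = plate neutral controls and 100% = maraviroc near 300 nM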
STATED CONDITIONS: at 16.7 µM unless noted
The campaign covered roughly 360,000 compounds. About 3,900 (1.1%) were called active.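 How the source made its calls: active means mean replicate inhibition score of at least 50 and every replicate individually at or above 50; inconclusive means only one of the two criteria met; inactive means mean below 50 and not all replicates reaching 50.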 Many of the other results were omitted from the sample, so actives are more common in it than they were.
Your reply should match one of these outcome classes. Yes = active, No = inactive

- COMPOUND: "C[C@H](NC(=O)C[C@@H]1CC[C@H](NC(=O)CN2CCOCC2)[C@H](CO)O1)c1ccccc1"
  CATEGORY LABEL: "No"
- COMPOUND: "Cc1ccc(CN2CC(C(=O)N3CCN(S(=O)(=O)c4ccccc4)CC3)CC2=O)cc1 (configuration not stated)"
  CATEGORY LABEL: "Yes"

### Prompt Returns: the outcome recorded for O=C(NCC[C@H]1CC[C@@H](NC(=O)C2CC2)[C@H](CO)O1)c1ccc(F)cc1 in this assay.
### Response No

### Prompt Returns: the outcome recorded for N#Cc1ccccc1-n1c(N)c(C(=O)N2CCCC2)sc1=S in this assay.
### Response Yes

### Prompt Returns: the outcome recorded for CC(=O)Nc1ccc(C(=O)/C=C/c2ccc[nH]2)cc1 in this assay.
### Response No

### Prompt Returns: the outcome recorded for CO[C@@H]1CN(C)C(=O)c2cc(NC(C)=O)ccc2OC[C@@H](C)N(C(=O)NC2CCCCC2)C[C@H]1C in this assay.
### Response No

### Prompt Returns: the outcome recorded for COc1ccc(NC(=O)N(C)C[C@@H]2OCCCC[C@@H](C)Oc3ccc(N(C)C)cc3C(=O)N([C@H](C)CO)C[C@@H]2C)cc1 in this assay.
### Response No

### Prompt Returns: the outcome recorded for Cc1noc(C)c1NC(=O)N[C@H]1CC[C@H](CC(=O)N2CCCCC2)O[C@@H]1CO in this assay.
### Response No

### Prompt Returns: the outcome recorded for CNC[C@H]1Oc2ncc(-c3ccccc3F)cc2C(=O)N([C@H](C)CO)C[C@H]1C in this assay.
### Response No

### Prompt Returns: the outcome recorded for C[C@@H]1CCCCO[C@@H](CN(C)Cc2ccncc2)[C@H](C)CN([C@@H](C)CO)C(=O)c2cc(NS(=O)(=O)c3ccccc3)ccc2O1 in this assay.
### Response No

### Prompt Returns: the outcome recorded for O=C(c1ccc(S(=O)(=O)N2CCCC2)cc1)N1CCN(c2ccccc2F)CC1 in this assay.
### Response No

### Prompt Returns: the outcome recorded for [N-]=[N+]=Nc1ccccc1C[C@@]1(C(=O)NCc2ccccc2)N=C(c2ccc(OCCCO)cc2)O[C@@H]1c1ccccc1 in this assay.
### Response No

###

Assign inhibition to each entry below.
PROTOCOL TEXT: inhibitors of HIV-1 Env-driven cell-cell fusion, primary screen, HeLa-JRFL effector, CEM21 target cells, luciferase (AID 651610);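 further: 0% = plate neutral controls and 100% = maraviroc near 300 nM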
STATED CONDITIONS: active compounds read high; at 16.7 µM unless noted
About 3,900 (1.1%) of roughly 360,000 compounds were called active. The sample as a whole holds a higher share of actives than the screen did.

Sample answers from the record:
- COMPOUND: "COc1ccc(-n2c(C)cc(C(=O)CSc3nnc(-c4cccs4)o3)c2C)cc1"
  inhibition: "89.2% [at 12.3 µM] (active)"
- COMPOUND: "C[C@@H]1CCCCO[C@H](CN(C)Cc2ccc(C(F)(F)F)cc2)[C@H](C)CN([C@H](C)CO)C(=O)c2cc(NC(=O)Nc3ccc(F)cc3)ccc2O1"
  inhibition: "9.27% (inactive)"
- COMPOUND: "COc1ccc([Si](C)(C)[C@H]2[C@H](CCO)O[C@@]3(C(=O)N(Cc4cccc(N5CCOC5=O)c4)c4ccccc43)[C@@H]2C)cc1"
  inhibition: "61.7% (active)"

Hi there! I need inhibition for each item below, if you can.
1. C[C@@H]1CCCCO[C@@H](CN(C)S(=O)(=O)c2cn(C)cn2)[C@@H](C)CN([C@H](C)CO)C(=O)c2cc(NC(=O)c3ccncc3)ccc2O1
2. CCC(=O)Nc1ccc2c(c1)OC[C@H](C)N(Cc1ccccc1F)C[C@H](C)[C@@H](OC)CN(C)C2=O
3. CCN1C(=O)[C@@H]2[C@@H](c3ccc(-c4ccc(OC)cc4)c(OC)c3)N3CCC[C@@]3(C(=O)OC)[C@@H]2C1=O
4. C[C@@H]1CN([C@H](C)CO)C(=O)c2cccc(NS(=O)(=O)c3cn(C)cn3)c2O[C@H]1CN(C)Cc1ccc(C(=O)O)cc1
5. CCCCCCSc1ccc([C@@H]2[C@H]3C(=O)N(CC)C(=O)[C@H]3[C@]3(C(=O)OC)CCCCN23)cc1
6. COc1ccc([Si](C)(C)[C@@H]2[C@@H](CCO)O[C@]3(C(=O)N(Cc4ccccc4)c4ccc(N5CCC5=O)cc43)[C@H]2C)cc1
7. COc1ccc([Si](C)(C)[C@@H]2[C@@H](CCO)O[C@]3(C(=O)N(Cc4cccc(N5CCCCC5=O)c4)c4ccccc43)[C@H]2C)cc1
8. COc1ccc(N(CC(=O)Nc2cccc3ccccc23)S(C)(=O)=O)c(OC)c1

### Response
26.2% (inactive)
27.1% (inactive)
-5% [at 12.3 µM] (inactive)
16.1% (inactive)
8.61% [at 12.3 µM] (inactive)
15.1% (inactive)
-10.1% (inactive)
4.71% [at 12.3 µM] (inactive)

Hi there! I need inhibition for each item below, if you can.
1. C[C@H]1CN([C@@H](C)CO)C(=O)c2cc(-c3cccc(C(=O)N(C)C)c3)cnc2O[C@H]1CN(C)S(=O)(=O)c1ccccc1
2. COc1ccc(N(CC(=O)Nc2ccc(C)cc2C)S(=O)(=O)c2ccccc2[N+](=O)[O-])c(OC)c1
3. CCOC(=O)C1=C(c2ccc(OC)cc2)C(=O)c2ccccc2C1=O
4. CC(C)NC(=O)Nc1ccc2c(c1)C(=O)N([C@H](C)CO)C[C@H](C)[C@@H](CN(C)Cc1ccc(C(F)(F)F)cc1)OCCCC[C@@H](C)O2
5. COc1ccc(NC(=O)Nc2ccc3c(c2)C(=O)N([C@@H](C)CO)C[C@H](C)[C@H](CN(C)Cc2ccc(C(F)(F)F)cc2)OCCCC[C@H](C)O3)cc1

### Response
-10.1% (inactive)
31.2% [at 12.3 µM] (inactive)
74.3% [at 12.3 µM] (active)
76.6% [at 12.3 µM] (active)
55.7% (active)

### Prompt Query (compound): CCOC(=O)C(Cc1ccc(N)cc1)N1C(=O)c2ccccc2C1=O (configuration not stated) ; field requested: inhibition
### Response 6.82% [at 12.3 µM] (inactive)
